target: Sodium channel protein type 9 subunit alpha (Homo sapiens, UniProt Q15858); experiment: cell-based
Sequence (Q15858 whole entry): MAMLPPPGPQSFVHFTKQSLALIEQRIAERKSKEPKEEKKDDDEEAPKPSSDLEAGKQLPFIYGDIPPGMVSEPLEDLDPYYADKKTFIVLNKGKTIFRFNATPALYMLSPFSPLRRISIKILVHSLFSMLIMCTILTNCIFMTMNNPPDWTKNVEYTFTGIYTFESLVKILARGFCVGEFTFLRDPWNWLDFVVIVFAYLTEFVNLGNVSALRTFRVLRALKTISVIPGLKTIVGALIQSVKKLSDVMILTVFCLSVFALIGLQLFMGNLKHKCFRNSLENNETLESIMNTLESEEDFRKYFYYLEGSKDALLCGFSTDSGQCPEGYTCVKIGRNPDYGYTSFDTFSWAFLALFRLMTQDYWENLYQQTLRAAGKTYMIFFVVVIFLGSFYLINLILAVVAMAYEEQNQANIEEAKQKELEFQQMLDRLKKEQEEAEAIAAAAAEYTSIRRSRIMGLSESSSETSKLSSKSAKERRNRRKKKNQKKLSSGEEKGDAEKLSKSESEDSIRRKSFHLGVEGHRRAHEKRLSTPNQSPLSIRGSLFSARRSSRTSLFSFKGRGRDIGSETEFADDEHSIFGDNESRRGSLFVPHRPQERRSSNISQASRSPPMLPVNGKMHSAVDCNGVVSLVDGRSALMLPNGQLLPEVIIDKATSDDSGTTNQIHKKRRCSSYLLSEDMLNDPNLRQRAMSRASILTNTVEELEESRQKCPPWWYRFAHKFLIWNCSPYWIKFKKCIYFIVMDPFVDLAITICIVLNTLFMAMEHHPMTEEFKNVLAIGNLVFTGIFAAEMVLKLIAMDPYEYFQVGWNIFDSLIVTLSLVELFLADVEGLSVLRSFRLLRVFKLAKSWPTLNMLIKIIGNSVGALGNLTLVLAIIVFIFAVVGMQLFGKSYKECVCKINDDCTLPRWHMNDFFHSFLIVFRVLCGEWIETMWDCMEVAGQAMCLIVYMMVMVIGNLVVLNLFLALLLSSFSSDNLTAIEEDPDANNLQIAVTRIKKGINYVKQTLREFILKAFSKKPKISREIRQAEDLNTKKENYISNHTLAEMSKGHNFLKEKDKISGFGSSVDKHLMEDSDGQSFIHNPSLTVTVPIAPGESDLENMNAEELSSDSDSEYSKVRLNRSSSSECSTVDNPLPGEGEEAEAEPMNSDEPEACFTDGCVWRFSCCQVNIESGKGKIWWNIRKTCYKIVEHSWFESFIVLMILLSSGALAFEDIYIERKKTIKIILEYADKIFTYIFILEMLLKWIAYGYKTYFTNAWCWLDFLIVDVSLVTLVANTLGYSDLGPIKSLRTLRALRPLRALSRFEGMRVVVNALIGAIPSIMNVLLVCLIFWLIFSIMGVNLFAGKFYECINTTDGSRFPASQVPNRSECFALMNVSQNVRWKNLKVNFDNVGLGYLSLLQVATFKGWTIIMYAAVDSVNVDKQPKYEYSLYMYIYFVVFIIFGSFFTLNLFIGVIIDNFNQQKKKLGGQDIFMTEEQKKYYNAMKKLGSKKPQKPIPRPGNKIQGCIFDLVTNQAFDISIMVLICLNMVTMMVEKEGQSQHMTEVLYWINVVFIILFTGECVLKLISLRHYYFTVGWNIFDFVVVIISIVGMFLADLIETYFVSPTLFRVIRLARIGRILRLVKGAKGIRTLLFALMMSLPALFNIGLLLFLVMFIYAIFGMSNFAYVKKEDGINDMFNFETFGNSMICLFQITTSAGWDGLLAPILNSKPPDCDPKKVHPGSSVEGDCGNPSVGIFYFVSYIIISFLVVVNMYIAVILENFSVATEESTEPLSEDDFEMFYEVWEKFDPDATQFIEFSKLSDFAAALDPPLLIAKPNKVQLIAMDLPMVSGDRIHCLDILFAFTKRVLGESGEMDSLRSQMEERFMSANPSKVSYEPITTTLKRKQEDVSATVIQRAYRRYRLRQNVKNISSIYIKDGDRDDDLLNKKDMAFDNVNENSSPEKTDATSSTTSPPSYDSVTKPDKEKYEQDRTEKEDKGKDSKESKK
observation.type: IC50 (µM)

mol=Cc1nonc1NS(=O)(=O)c1ccc(Oc2ccc(Cl)cc2-c2ccnn2C)c(C#N)c1 display_unit=µM assay_result=10

P = Cn1nccc1-c1cc(Cl)ccc1Oc1ccc(S(=O)(=O)Nc2cc[nH]n2)cc1C#N
Q = N#Cc1cc(S(=O)(=O)Nc2nccs2)ccc1Oc1ccc(Cl)cc1-c1c[nH]nc1C(F)(F)F
R = CN(C)Cc1cnn(-c2ccc(Oc3ccc(S(=O)(=O)Nc4nccs4)cc3C#N)cc2)c1
S = Cn1nccc1-c1cc(C(F)(F)F)ncc1Oc1ccc(S(=O)(=O)Nc2ncc(Cl)s2)cc1C#N
Ask: Put these in order: smallest IC50 first, largest last. Answer by writing out the labels in the requested order.
Reply: S, Q, R, P

* * *

target: Sodium channel protein type 9 subunit alpha (Homo sapiens); assay: cell-based
observation.type: IC50 (nM)

The following compounds have reported results that may help.
mol=N#Cc1cc(S(=O)(=O)Nc2nccs2)ccc1Oc1ccc(N2CCNC2=O)cc1 display_unit=nM assay_result=1000
mol=N#Cc1ccc(Oc2cc(F)c(S(=O)(=O)Nc3ncns3)cc2Cl)c(-c2ccn[nH]2)c1 display_unit=nM assay_result=9.4
mol=O=S(=O)(Nc1cscn1)c1ccc(Oc2cc(C(F)(F)F)nn2-c2ccccc2)c(F)c1 display_unit=nM assay_result=10000
mol=N#Cc1cc(S(=O)(=O)Nc2cnsn2)ccc1Oc1ccccc1-c1ccccc1 display_unit=nM assay_result=5680
mol=N#Cc1cc(S(=O)(=O)Nc2ncns2)ccc1Oc1ccc(Cl)cc1-c1ccnn1C1CCC1 display_unit=nM assay_result=12
mol=O=S(=O)(Nc1nncs1)c1ccc(Oc2ccc(Cl)cc2-c2ccn[nH]2)c(Cl)c1 display_unit=nM assay_result=50
mol=N#Cc1cc(S(=O)(=O)Nc2ncns2)ccc1Oc1ccc(C(F)(F)F)cc1C1CCOCC1 display_unit=nM assay_result=8.8
mol=Cc1ccc(Oc2ccc(S(=O)(=O)Nc3nccs3)cc2F)c(-c2ccn(C)n2)c1 display_unit=nM assay_result=6440

a = N#Cc1cc(S(=O)(=O)Nc2ncsn2)ccc1Oc1ccccc1-c1ccccc1
b = Nc1nccc(-c2cc(F)ccc2Oc2cc(F)c(S(=O)(=O)Nc3ncc(Cl)s3)cc2F)n1
Ask: Recorded IC50 values differ for a and b ; which one is higher? Answer by stating the label of the chosen item.
Reply: a
(a: 4600 nM, b: 1000 nM)

a = CC(C)(C)OC(=O)n1cc(-c2cc(Cl)ccc2Oc2cc(F)c(S(=O)(=O)Nc3nccs3)cc2F)cn1
b = N#Cc1cc(S(=O)(=O)Nc2nccs2)ccc1Oc1ccc(N2CCCC2=O)cc1
Ask: Name the one with the greater IC50 value, either a or b as given. # reply format: chosen label
Reply: b

1 = O=S(=O)(Nc1cscn1)c1cc(Cl)c(Oc2cc(C(F)(F)F)ccc2-c2cn[nH]c2)cc1F
2 = COc1nccnc1NS(=O)(=O)c1ccc(Oc2ccc(Cl)cc2-c2ccnn2C)c(C#N)c1
3 = Cc1cc(C)n(-c2ccc(Oc3ccc(S(=O)(=O)Nc4nccs4)c(F)c3)cc2)n1
4 = COc1cc(Oc2ccc(S(=O)(=O)Nc3ccc(F)cn3)cc2C#N)ccc1-n1cccn1
Ask: Please put the entries in order of rising IC50. List each label, following the requested order.
Reply: 1, 3, 4, 2

A = N#Cc1cc(S(=O)(=O)Nc2ncns2)ccc1Oc1cc(C(F)(F)F)nn1Cc1ccccc1
B = N#Cc1ccnc(NS(=O)(=O)c2ccc(Oc3ccccc3-c3ccccc3)c(C#N)c2)c1
Ask: I would appreciate it if you could say which entry, A or B , has the lower IC50 value. Refer to your chosen entry by its label in the reply.
Reply: A

A = N#Cc1cc(S(=O)(=O)Nc2cscn2)ccc1Oc1ccc(Cl)cc1-c1ccn(C(F)(F)F)n1
B = N#Cc1cc(S(=O)(=O)Nc2ccc(F)cn2)ccc1Oc1ccc(CN2CCC2)c(F)c1
Ask: Hey, between A and B which has a smaller measured IC50? Answer by quoting the chosen item's label.
Reply: A
(A: 1000 nM, B: 30000 nM)

1 = N#Cc1cc(S(=O)(=O)Nc2cscn2)ccc1Oc1ccc(Cl)cc1-n1cnc(C(F)(F)F)c1
2 = N#Cc1cc(S(=O)(=O)Nc2ccc(F)cn2)ccc1Oc1ccc(-c2cocn2)cc1
Ask: Hey, which is lower on measured IC50, 1 or 2 ? Please reply using the label of the selected record.
Reply: 1

P = CCn1nccc1-c1cc(F)ccc1Oc1ccc(S(=O)(=O)Nc2nccs2)cc1C#N
Q = N#Cc1cc(S(=O)(=O)Nc2nncs2)ccc1Oc1ccc(Cl)cc1-c1cc(N2CCOCC2)ncn1
R = CC(C)(C)n1ccc(-c2c(F)cccc2Oc2ccc(S(=O)(=O)Nc3ncns3)cc2C#N)n1
Ask: Order the records so the highest IC50 appears first and the lowest last. List the labels, following the order given in the request.
Reply: R, Q, P
(R: 10000 nM, Q: 1000 nM, P: 90 nM)

* * *

target: Sodium channel protein type 9 subunit alpha (Homo sapiens, UniProt Q15858); assay: cell-based
pIC50: −log10 of the molar value.
observation.type: pIC50

Known pIC50 results, listed for orientation:
molecule=Cn1ncnc1-c1cc(Cl)ccc1Oc1ccc(S(=O)(=O)Nc2ncc(F)s2)cc1F observation_type=pIC50 assay_result=6.00
molecule=N#Cc1cc(SNc2ncns2)ccc1Oc1ccc(F)cc1C1CC1 observation_type=pIC50 assay_result=6.00
molecule=CC(C)(C)OC(=O)n1cc(-c2cc(Cl)ccc2Oc2cc(F)c(S(=O)(=O)Nc3ncc(F)s3)cc2F)cn1 observation_type=pIC50 assay_result=7.60
molecule=N#Cc1cc(S(=O)(=O)Nc2ncns2)ccc1Oc1ccc(C(F)(F)F)cc1C1=CN(O)CC=C1 observation_type=pIC50 assay_result=6.96
molecule=N#Cc1cc(S(=O)(=O)Nc2nccs2)ccc1Oc1ccc(-c2cc(C3CC3)n[nH]2)c(Cl)c1 observation_type=pIC50 assay_result=6.00
molecule=N#Cc1cc(S(=O)(=O)Nc2nccs2)ccc1Oc1cnn(-c2ccc(Cl)cc2)c1 observation_type=pIC50 assay_result=6.00
molecule=NC1=NCN=C1c1cc(Cl)ccc1Oc1cc(F)c(S(=O)(=O)Nc2ccncn2)cc1Cl observation_type=pIC50 assay_result=7.68
molecule="CC(C)C1CN(c2ccc(Oc3ccc(S(=O)(=O)Nc4nccs4)cc3C#N)cc2)C(=O)N1 (stereo not given)" observation_type=pIC50 assay_result=6.00
molecule=O=S(=O)(Nc1cscn1)c1cc(Cl)c(Oc2cc(C(F)(F)F)ccc2-c2cncnc2)cc1F observation_type=pIC50 assay_result=6.00
molecule=CCn1nc(C(F)(F)F)cc1-c1ccc(Oc2ccc(S(=O)(=O)Nc3nncs3)cc2C#N)cc1 observation_type=pIC50 assay_result=6.11

P = CN(C)C(=O)c1cccc(-c2ccccc2)c1Oc1ccc(S(=O)(=O)c2ncns2)cc1C#N
Q = Cn1ncnc1-c1cc(Cl)ccc1Oc1ccc(S(=O)(=O)Nc2ncc(F)s2)cc1C#N
R = N#Cc1cc(S(=O)(=O)Nc2ccccc2C(F)(F)F)ccc1Oc1ccccc1-c1ccccc1
Ask: Sort low-to-high on pIC50, please. I would appreciate it if you listed the labels in the requested order.
Reply: R, P, Q
(R: 5.52, P: 6.13, Q: 6.52)

* * *

biological target: Sodium channel protein type 9 subunit alpha (Homo sapiens, UniProt Q15858); experiment: cell-based
pIC50: −log10 of the molar value.
observation.type: pIC50

mol=N#Cc1cc(S(=O)(=O)Nc2ccccc2)ccc1Oc1ccccc1-c1ccccc1 observation_type=pIC50 assay_result=5.00

1 = Cn1nccc1-c1cc(Cl)ccc1Oc1ccc(S(=O)(=O)Nc2cccnc2)cc1C#N
2 = O=S(=O)(Nc1cscn1)c1cc(Cl)c(Oc2ccc(C(F)(F)F)cc2-c2cncc(CO)c2)cc1F
3 = COc1cccc(-c2ccc(Oc3ccc(S(=O)(=O)Nc4nccs4)cc3C#N)cc2)n1
Ask: Put the items in order so that reported pIC50 rises from first to last. Kindly provide the labels arranged according to the requested ordering.
Reply: 1, 3, 2

* * *

molecular target: Sodium channel protein type 9 subunit alpha (Homo sapiens, UniProt Q15858); assay: cell-based
observation.type: IC50 (µM)

Consider the worked cases shown below.
compound=CN(C)C(=O)c1cnn(-c2ccc(Oc3ccc(S(=O)(=O)Nc4nccs4)cc3C#N)cc2)c1 assay_result=1
compound=N#Cc1cc(S(=O)(=O)Nc2ncns2)ccc1Oc1ccccc1Oc1ccccc1C(N)=O assay_result=10
compound=N#Cc1cc(S(=O)(=O)Nc2nccs2)ccc1Oc1ccc(Cl)cc1-c1ccccn1 assay_result=0.58
compound=N#Cc1cc(S(=O)(=O)Nc2nccs2)ccc1Oc1cccc(-n2ccc(C(F)(F)F)n2)c1 assay_result=0.93
compound=N#Cc1cc(S(=O)(=O)Nc2ncns2)ccc1Oc1ccccc1-c1cccc(F)c1 assay_result=0.67
compound=Cc1nn(C(C)(C)C)cc1-c1cc(Cl)ccc1Oc1cc(F)c(S(=O)(=O)Nc2nncs2)cc1Cl assay_result=0.3

I = Cc1cnc(NS(=O)(=O)c2ccc(Oc3ccccc3-c3ccccc3)c(C#N)c2)nc1
II = Nc1cc(-c2cc(OC(F)(F)F)ccc2Oc2cc(F)c(S(=O)(=O)Nc3ncns3)cc2F)ccn1
Ask: Choose between I and II : whose measured IC50 value is numerically larger? Returns: label corresponding to the selected item.
Reply: I
(I: 10 µM, II: 0.0024 µM)
